Header: pKi / UniProt P47901 / multiple publications
pKi: −log10 of the molar value.
Reported Property: pKi

>>> endpoint_result("COc1ccc(C(C(=O)N2CCN(c3ccncc3)CC2)n2c(=O)n(S(=O)(=O)c3ccc(OC)cc3)c3ccc(Cl)cc32)cc1 (stereo not drawn)")
"6.30 to 7.00"
>>> endpoint_result("COc1ccc(S(=O)(=O)N2C(=O)C(c3cc(CN4CCN(CCO)CC4)ccc3OC)(N3CCC[C@H]3c3ncc(C)o3)c3cc(Cl)ccc32)cc1 (stereo partly drawn)")
"7.00 to 8.00"
>>> endpoint_result("CCOc1ccc(OC)cc1C1(N2CCC(N3CCNCC3)CC2)C(=O)N(S(=O)(=O)c2ccc(OC)cn2)c2ccc(C#N)cc21 (racemic)")
"> 8.00"

* * *

Header: Ki / Vasopressin V1b receptor (Homo sapiens, UniProt P47901) / multiple publications
Reported Property: Ki

>>> endpoint_result("COc1ccc(S(=O)(=O)n2c(=O)n(C(C(=O)N3CCN(C4CCN(C)CC4)CC3)c3ccccc3)c3cc(Cl)c(Cl)cc32)cc1 (stereo not shown)")
"0.5 to 10 µM"
>>> endpoint_result("CCOc1ccccc1C1(N2CCN(c3ccncc3)C(C)C2)C(=O)N(S(=O)(=O)c2cccc3cccnc23)c2ccc(C#N)cc21 (racemic)")
"0.01 to 0.05 µM"
>>> endpoint_result("COc1ccc(S(=O)(=O)n2c(=O)n(C(C(=O)N3CCN(C4CCN(C)CC4)CC3)c3ccccc3)c3ccccc32)c(OC)c1 (stereo not shown)")
"0.5 to 10 µM"
>>> endpoint_result("CC(C)NC(=O)Cn1c(-c2cccc(Cl)c2)nc2ccc([C@H]3C[C@@H](CN4CC=CCC4)C3)cc2c1=O")
"0.001 to 0.01 µM"
>>> endpoint_result("COc1ccc(S(=O)(=O)N2C(=O)C(c3cc(CN(C)C)ccc3OC)(N3CCCC3c3nccs3)c3cc(Cl)ccc32)cc1 (stereo not shown)")
"0.01 to 0.1 µM"
>>> endpoint_result("CCOc1ccc(OC)cc1C1(N2CCN(c3ccnc(C(C)C)c3)CC2)C(=O)N(S(=O)(=O)c2ccc(OC)cn2)c2ccc(C#N)cc21 (single isomer, unassigned; (+))")
"< 0.01 µM"
>>> endpoint_result("CC(C)NC(=O)Cn1c(-c2cccc(Cl)c2)nc2ccc([C@H]3C[C@@H](CN4CCC(O)CC4)C3)cc2c1=O")
"0.01 to 0.1 µM"
>>> endpoint_result("COc1ccc(C)cc1C1(N2CCN(c3ccncc3)CC2)C(=O)N(S(=O)(=O)c2cccc3cccnc23)c2ccc(C#N)cc21 (racemic)")
"< 0.01 µM"
>>> endpoint_result("COc1ccc(OC)c(C2(N3CCN(c4ccncc4)CC3)C(=O)N(S(=O)(=O)c3cccc4cccnc34)c3ccc(OC)cc32)c1 (racemic)")
"< 0.01 µM"
>>> endpoint_result("COc1ccc(S(=O)(=O)N2C(=O)C(c3cc(CN4CCN(C)CC4)ccc3OC)(N3CCC[C@H]3c3ncco3)c3cc(C#N)ccc32)cc1 (stereo partly shown)")
"< 0.01 µM"
>>> endpoint_result("COc1ccc(S(=O)(=O)N2C(=O)C(c3cc(CN4CCNCC4)ccc3OC)(N3CCCC3c3ccccn3)c3cc(Cl)ccc32)cc1 (stereo not shown)")
"0.1 to 1 µM"
>>> endpoint_result("CNCc1ccc(OC)c(C2(N3CCC[C@H]3c3ncco3)C(=O)N(S(=O)(=O)c3ccc(OC)cc3)c3cc(Cl)c(Cl)cc32)c1 (stereo partly shown)")
"0.01 to 0.1 µM"
>>> endpoint_result("CCCN1CCN(C2CN(C(=O)C(c3ccccc3)n3c(=O)n(S(=O)(=O)c4ccc(OC)cc4)c4ccc(Cl)cc43)C2)CC1 (stereo not shown)")
"0.1 to 0.5 µM"
>>> endpoint_result("O=C(C(c1ccccc1)n1c(=O)n(S(=O)(=O)c2ccco2)c2ccc(Cl)cc21)N1CCN(c2ccncc2)CC1 (stereo not shown)")
"0.1 to 0.5 µM"
>>> endpoint_result("CCOc1ncccc1C1(OC(=O)N2CCC(N3CCN(C)CC3)CC2)C(=O)N(S(=O)(=O)c2ccccc2OC)c2ccc(C#N)cc21 (racemic)")
"0.01 to 0.05 µM"
>>> endpoint_result("CCOc1ccc(CC)cc1C1(N2CCN(c3ccnc(C)c3)CC2)C(=O)N(S(=O)(=O)c2ccc(OC)cn2)c2ccc(C#N)cc21 (racemic)")
"< 0.01 µM"
>>> endpoint_result("COc1ccc(S(=O)(=O)n2c(=O)n(CC(=O)N3CCCC3)c3cc(Cl)ccc32)cc1")
"0.5 to 10 µM"
>>> endpoint_result("CCOc1ncccc1C1(NC(=O)N2CCC(N3CCN(C)CC3)CC2)C(=O)N(S(=O)(=O)c2ccc(OC)cc2OC)c2cc(F)c(C#N)cc21 (stereo not shown)")
"< 0.001 µM"
>>> endpoint_result("COc1ccc(S(=O)(=O)n2c(=O)n(C(C(=O)NCCCN3CCCC3=O)c3ccccc3)c3cc(Cl)ccc32)cc1 (stereo not shown)")
"0.5 to 10 µM"
>>> endpoint_result("COc1ccc(S(=O)(=O)N2C(=O)C(c3cc(CO)ccc3OC)(N3CCC[C@H]3c3ncco3)c3cc(Cl)ccc32)cc1 (stereo partly shown)")
"0.01 to 0.1 µM"
>>> endpoint_result("CCOc1ncccc1[C@]1(NC(=O)N2CC(N3CCC(N4CCC(F)(F)CC4)CC3)C2)C(=O)N(S(=O)(=O)c2ccc(OC)cc2OC)c2ccc(C#N)cc21")
"< 0.001 µM"
>>> endpoint_result("COc1ccc(S(=O)(=O)n2c(=O)n(C(C(=O)N3CCCCC3)c3ccccc3)c3cc(Cl)ccc32)cc1 (stereo not shown)")
"0.5 to 10 µM"
>>> endpoint_result("COc1ccc(S(=O)(=O)N2C(=O)C(c3cc(CN4CCN(C)CC4)ccc3OC)(N3CCCC3c3nccs3)c3cc(Cl)ccc32)cc1 (stereo not shown)")
"0.01 to 0.1 µM"
>>> endpoint_result("CC(C)NC(=O)Cn1c(-c2cccc(Cl)c2)nc2ccc(C3=CC(CN4CCCCC4)C3)cc2c1=O (stereo not shown)")
"0.01 to 0.1 µM"
>>> endpoint_result("N#Cc1ccc(S(=O)(=O)n2c(=O)n(C(Cc3ccccc3)C(=O)N3CCN(c4ccncc4)CC3)c3cc(Cl)ccc32)cc1 (stereo not shown)")
"0.5 to 10 µM"

* * *

Header: pKi / Vasopressin V1b receptor (Homo sapiens) / multiple publications
pKi: −log10 of the molar value.
Reported Property: pKi

>>> endpoint_result("CCCN1CCN(C2CCN(C(=O)C(c3ccccc3OC)n3c(=O)n(S(=O)(=O)c4ccc(OC)cc4)c4ccc(Cl)cc43)C2)CC1 (stereo not drawn)")
"> 7.00"
>>> endpoint_result("CCOc1ncccc1C1(OC(=O)c2ccc(N3CCN(C)CC3)cc2)C(=O)N(S(=O)(=O)c2ccc(OC)cc2OC)c2ccc(C#N)cc21 (stereo not drawn)")
"8.00 to 9.00"
>>> endpoint_result("COc1ccc(S(=O)(=O)N2C(=O)C(c3cc(CNC(C)C)ccc3OC)(N3CCC[C@H]3c3ncco3)c3cc(C#N)ccc32)cc1 (stereo partly drawn)")
"7.00 to 8.00"

* * *

Header: Ki / Vasopressin V1b receptor (Homo sapiens) / multiple publications
Reported Property: Ki

>>> endpoint_result("COc1ccc(S(=O)(=O)n2c(=O)n(C(C(=O)N3CCC(NC4CCNCC4)C3)c3ccccc3)c3cc(Cl)ccc32)cc1 (stereo not drawn)")
"< 0.1 µM"
>>> endpoint_result("CCNCc1ccc(OCC)c(C2(N3CCC[C@H]3c3ncco3)C(=O)N(S(=O)(=O)c3ccc(OC)cc3)c3ccc(Cl)cc32)c1 (stereo partly drawn)")
"0.01 to 0.1 µM"
>>> endpoint_result("COc1ccc(S(=O)(=O)n2c(=O)n(C(C(=O)NCCCN3CCN(C)CC3)c3ccccc3)c3cc(Cl)ccc32)cc1 (stereo not drawn)")
"0.1 to 0.5 µM"
>>> endpoint_result("CC(C)NC(=O)Cn1c(-c2cccc(Cl)c2)nc2ccc([C@H]3C[C@@H](CN4CCC(C(F)(F)F)CC4)C3)cc2c1=O")
"0.001 to 0.01 µM"
>>> endpoint_result("COc1ccc(S(=O)(=O)n2c(=O)n(C(C(=O)N3CCC(N4CCN(Cc5ccccc5)CC4)C3)c3ccccc3)c3cc(Cl)ccc32)cc1 (stereo not drawn)")
"< 0.1 µM"
>>> endpoint_result("COc1ccc(C(C(=O)N2CCN(c3ccncc3)CC2)n2c(=O)n(S(=O)(=O)c3ccc(OC)cc3OC)c3ccc(Cl)cc32)cc1 (stereo not drawn)")
"0.1 to 0.5 µM"

* * *

Header: pKi / Vasopressin V1b receptor (Homo sapiens, UniProt P47901) / multiple publications
pKi: −log10 of the molar value.
Reported Property: pKi

>>> endpoint_result("CCN(CC)Cc1ccc(OC)c(C2(N3CCC[C@H]3c3ncco3)C(=O)N(S(=O)(=O)c3ccc(OC)cc3)c3ccc(C#N)cc32)c1 (stereo partly shown)")
"7.00 to 8.00"
>>> endpoint_result("CCOc1ncccc1C1(NC(=O)N2CCN(C3CCN(C)CC3)CC2)C(=O)N(S(=O)(=O)c2ccccc2)c2ccc(C#N)cc21 (racemic)")
"7.30 to 8.00"
>>> endpoint_result("COc1ccc(S(=O)(=O)n2c(=O)n(C(C(=O)N3CC[C@@H](N)C3)c3ccccc3)c3cc(C#N)ccc32)cc1 (stereo partly shown)")
"5.00 to 6.30"
>>> endpoint_result("COc1ccc(S(=O)(=O)n2c(=O)n(C(C(=O)N3CC[C@H](N4CCN(C)CC4)C3)c3ccccc3)c3cc(C#N)ccc32)cc1 (stereo partly shown)")
"> 7.00"
>>> endpoint_result("COc1ccc(S(=O)(=O)n2c(=O)n(C(C(=O)NCc3cccnc3)c3ccccc3)c3cc(Cl)ccc32)cc1 (stereo not shown)")
"5.00 to 6.30"
>>> endpoint_result("COc1ccc(S(=O)(=O)n2c(=O)n(CC(=O)N3CCN(C)CC3)c3cc(Cl)ccc32)cc1")
"5.00 to 6.30"
>>> endpoint_result("COc1ccc(S(=O)(=O)n2c(=O)n(C(C(=O)N3CC[C@@H](NC4CCNCC4)C3)c3ccccc3)c3cc(Cl)ccc32)cc1 (stereo partly shown)")
"> 7.00"
>>> endpoint_result("COc1ccccc1C1(N2CCN(c3ccncc3)CC2)C(=O)N(S(=O)(=O)c2ccc(Cl)cc2)c2ccc(Cl)cc21 (stereo not shown)")
"6.30 to 7.30"
>>> endpoint_result("CCCN1CCN([C@H]2CCN(C(=O)C(c3ccccc3)n3c(=O)n(S(=O)(=O)c4cccc5cccnc45)c4ccc(C#N)cc43)C2)CC1 (stereo partly shown)")
"5.00 to 6.30"
>>> endpoint_result("CCOc1ncccc1[C@]1(NC(=O)N2CCN(C3CCN(C4COC4)CC3)CC2)C(=O)N(S(=O)(=O)c2ccc(OC)cc2OC)c2ccc(C#N)cc21")
"> 9.00"
>>> endpoint_result("CCCNCc1ccc(OC)c(C2(N3CCC[C@H]3c3ncco3)C(=O)N(S(=O)(=O)c3ccc(OC)cc3)c3cc(Cl)ccc32)c1 (stereo partly shown)")
"6.00 to 7.00"
>>> endpoint_result("CCN1CCN(Cc2ccc(OC)c(C3(N4CCC[C@@]4(C)c4ncco4)C(=O)N(S(=O)(=O)c4ccc(OC)cc4)c4ccc(Cl)cc43)c2)CC1 (stereo partly shown)")
"> 8.00"
>>> endpoint_result("CCOc1ncccc1[C@]1(NC(=O)N2CC(N3CCC(N(C)C4COC4)CC3)C2)C(=O)N(S(=O)(=O)c2ccc(OC)cc2OC)c2cc(F)c(C#N)cc21")
"> 9.00"
